Assay: Plasma pharmacokinetics
Assay type: in vivo, mice
Settings: mouse, plasma; all three routes of administration (i.v., i.p., oral), 8.9 mg/kg, mice; read-out: terminal plasma half life (converted)
Method: The plasma pharmacokinetics of the compound of Formula II, were compared following intravenous, intraperitoneal and oral administration at a dose of 8.9 mg/kg (26 μmol/kg). Mice were terminally anaesthetised at various times up to 8 hours after drug administration and blood was taken for preparation of plasma samples. Plasma concentrations of the compound of Formula II were measured by high performance liquid chromatography-mass spectrophometry. […]
valueType: half-life

Please give measured half-life of the following entry: "Cc1cccc2cc3c(=O)n(C)cc(C(=O)NCCN(C)C)c3nc12"
~3.5 h

----------
Collected IC50 values appear next to each entry.
tested on: JLD; assay: In vitro cell proliferation assay, continuous drug exposure; format: cell-based; conditions: Homo sapiens; JLD (reduced topoisomerase II), continuous drug exposure 3-5 days
Give a bare numeral; the unit nM is implied.

For orientation, consider the following solved cases.
[
  {
    "molecule": "COc1cccc2c1C(=O)c1c(O)c3c(c(O)c1C2=O)C[C@@](O)(C(=O)CO)C[C@@H]3O[C@H]1C[C@H](N)[C@H](O)[C@H](C)O1 [Doxorubicin]",
    "unitLabel": "nM",
    "IC50": 270
  },
  {
    "molecule": "COc1cc(NS(C)(=O)=O)ccc1Nc1c2ccccc2nc2ccccc12 [Amsacrine]",
    "unitLabel": "nM",
    "IC50": 2700
  },
  {
    "molecule": "Cc1cccc2cc3c(=O)n(C)cc(C(=O)NCCN(C)C)c3nc12 [Formula II]",
    "unitLabel": "nM",
    "IC50": 53
  }
]

Please give measured IC50 of the following entry: COc1cc([C@@H]2c3cc4c(cc3[C@@H](O[C@@H]3O[C@@H]5CO[C@@H](C)O[C@H]5[C@H](O)[C@H]3O)[C@H]3COC(=O)[C@H]23)OCO4)cc(OC)c1O [Etoposide]
14400

Please give measured IC50 of the following entry: CN(C)CCNC(=O)c1cccc2cc3ccccc3nc12.Cl.Cl [DACA, dihydrochloride]
2500

----------
experiment: Plasma pharmacokinetics; format: in vivo, mice; conditions: mouse, plasma; oral administration, 8.9 mg/kg, mice; read-out: area under the plasma concentration-time profile for the first 8 hours (AUC)
valueType: AUC (µM·h)
Give a bare numeral; the unit µM·h is implied.

Please give measured AUC of the following entry: "Cc1cccc2cc3c(=O)n(C)cc(C(=O)NCCN(C)C)c3nc12"
1.03

----------
tested on: AuxB1; test: In vitro susceptibility to multidrug resistance, continuous exposure IC50; type: cell-based, Chinese Hamster; details: Cricetulus griseus, AuxB1 (no multidrug resistance)
Please use Y for IC50 under 50 nM and N for everything else, ties included.

Solved cases (4 shown):
[
  {
    "compound": "COc1cccc2c1C(=O)c1c(O)c3c(c(O)c1C2=O)C[C@@](O)(C(=O)CO)C[C@@H]3O[C@H]1C[C@H](N)[C@H](O)[C@H](C)O1 [Doxorubicin]",
    "groupLabel": "N"
  },
  {
    "compound": "COc1cc([C@@H]2c3cc4c(cc3[C@@H](O[C@@H]3O[C@@H]5CO[C@@H](C)O[C@H]5[C@H](O)[C@H]3O)[C@H]3COC(=O)[C@H]23)OCO4)cc(OC)c1O [Etoposide]",
    "groupLabel": "N"
  },
  {
    "compound": "CN(C)CCNC(=O)c1cccc2cc3ccccc3nc12.Cl.Cl [DACA, dihydrochloride]",
    "groupLabel": "N"
  },
  {
    "compound": "COc1cc(NS(C)(=O)=O)ccc1Nc1c2ccccc2nc2ccccc12 [Amsacrine]",
    "groupLabel": "Y"
  }
]

hey, is IC50 for Cc1cccc2cc3c(=O)n(C)cc(C(=O)NCCN(C)C)c3nc12 [Formula II] lower than 50 nM or not?
Y

----------
assay: Plasma and tissue pharmacokinetics; assay type: in vivo, mice; details: mouse, ip; colon 38 tumour tissue, intraperitoneal 8.9 mg/kg, mice
valueType: half-life

Please give measured half-life of the following entry: "Cc1cccc2cc3c(=O)n(C)cc(C(=O)NCCN(C)C)c3nc12"
~9 h

----------
Assay: Plasma pharmacokinetics
Format: in vivo, mice
Settings: mouse, plasma; intravenous administration, 8.9 mg/kg, mice; read-out: area under the plasma concentration-time profile for the first 8 hours (AUC)
Procedure: The plasma pharmacokinetics of the compound of Formula II, were compared following intravenous, intraperitoneal and oral administration at a dose of 8.9 mg/kg (26 μmol/kg). Mice were terminally anaesthetised at various times up to 8 hours after drug administration and blood was taken for preparation of plasma samples. Plasma concentrations of the compound of Formula II were measured by high performance liquid chromatography-mass spectrophometry. […]
valueType: AUC

Please give measured AUC of the following entry: "Cc1cccc2cc3c(=O)n(C)cc(C(=O)NCCN(C)C)c3nc12"
1.99 µM·h

----------
assay: Plasma pharmacokinetics; assay type: in vivo, mice; details: mouse, plasma, ip; intraperitoneal administration, 8.9 mg/kg, mice; read-out: area under the plasma concentration-time profile for the first 8 hours (AUC)
valueType: AUC (µM·h)
Give a bare numeral; the unit µM·h is implied.

Please give measured AUC of the following entry: "Cc1cccc2cc3c(=O)n(C)cc(C(=O)NCCN(C)C)c3nc12"
1.63

----------
test: Plasma pharmacokinetics; type: in vivo, mice; conditions: mouse, plasma, oral; relative to intraperitoneal administration, 8.9 mg/kg, mice; read-out: bioavailability following oral administration
valueType: bioavailability (%)
Give a bare numeral; the unit % is implied.

Please give measured bioavailability of the following entry: "Cc1cccc2cc3c(=O)n(C)cc(C(=O)NCCN(C)C)c3nc12"
63

Hey, just so you know, these numbers are from patent US20080248134A1.
